Molecular target: human recombinant NK2 receptors (Homo sapiens, UniProt P21452)
Sequence (P21452 1-398): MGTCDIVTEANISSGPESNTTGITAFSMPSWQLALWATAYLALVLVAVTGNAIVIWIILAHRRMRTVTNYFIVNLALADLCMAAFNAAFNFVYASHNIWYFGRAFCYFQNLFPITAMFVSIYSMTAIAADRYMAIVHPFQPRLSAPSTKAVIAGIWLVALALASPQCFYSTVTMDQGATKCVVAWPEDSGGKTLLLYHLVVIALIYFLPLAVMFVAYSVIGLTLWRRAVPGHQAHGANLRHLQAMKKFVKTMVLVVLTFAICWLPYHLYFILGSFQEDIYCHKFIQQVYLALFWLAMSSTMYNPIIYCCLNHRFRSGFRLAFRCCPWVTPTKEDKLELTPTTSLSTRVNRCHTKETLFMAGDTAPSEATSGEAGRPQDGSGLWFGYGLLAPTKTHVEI
Test: cell-based
Non-standard residues stand in square brackets, D forms with d. Residues, ends and D or L forms follow the SMILES beside them. Nle = CCCC[C@H](N)C(=O)O; βAla = NCCC(=O)O
measurement label: Intracellular Ca^2+ % Max

CSCC[C@H](NC(=O)[C@H](CC(C)C)NC(=O)CCNC(=O)[C@@H](NC(=O)[C@H](Cc1ccccc1)NC(=O)[C@H](CCCNC(=N)N)NC(=O)[C@@H](N)CC(=O)O)C(C)C)C(N)=O [[Arg^5,β-Ala^8]-NKA(4–10), Asp-Arg-Phe-Val-[β-Ala]-Leu-Met-NH2] (H-DRFV[βAla]LM-NH2) ... 106.9 ± 8.9%
CCCC[C@H](NC(=O)[C@H](CC(C)C)NC(=O)CCNC(=O)[C@@H](NC(=O)[C@H](Cc1ccccc1)NC(=O)[C@H](CCCNC(=N)N)NC(=O)[C@@H](N)CC(=O)O)C(C)C)C(N)=O [[Arg^5,β-Ala^8,Nle^10]-NKA(4–10), Asp-Arg-Phe-Val-[β-Ala]-Leu-Nle-NH2] (H-DRFV[βAla]L[Nle]-NH2) ... 81.4 ± 1.2%

[ask] Given the entry CCCC[C@H](NC(=O)[C@H](CC(C)C)N(C)C(=O)CNC(=O)[C@@H](NC(=O)[C@H](Cc1ccccc1)NC(=O)[C@H](CCCCN)NC(=O)[C@@H](N)CC(=O)O)C(C)C)C(N)=O [[Lys^5,MeLeu^9,Nle^10]-NKA(4-10), Asp-Lys-Phe-Val-Gly-Leu(NMe)-Nle-NH2] , report its measured Intracellular Ca^2+ % Max.
[reply] 101.4 ± 3.0%

---

Listed compounds paired with reported Intracellular Ca^2+ % Max
Target: human recombinant NK2 receptors (Homo sapiens, UniProt P21452)
Test: cell-based
Non-standard residues stand in square brackets, D forms with d. Residues, ends and D or L forms follow the SMILES beside them. Nle = CCCC[C@H](N)C(=O)O; βAla = NCCC(=O)O
Only the number, expressed in %, is required.

[ask] Given the entry CCCC[C@H](NC(=O)[C@H](CC(C)C)NC(=O)CCNC(=O)[C@@H](NC(=O)[C@H](Cc1ccccc1)NC(=O)[C@H](CCCCN)NC(=O)[C@@H](N)CC(=O)O)C(C)C)C(N)=O [[Lys^5,β-Ala^8,Nle^10]-NKA(4–10), Asp-Lys-Phe-Val-[β-Ala]-Leu-Nle-NH2] (H-DKFV[βAla]L[Nle]-NH2) , report its measured Intracellular Ca^2+ % Max.
[reply] 83.1

[ask] Given the entry CSCC[C@H](NC(=O)[C@H](CC(C)C)NC(=O)CCNC(=O)[C@@H](NC(=O)[C@H](Cc1ccccc1)NC(=O)[C@H](CO)NC(=O)[C@@H](N)CC(=O)O)C(C)C)C(N)=O [[β-Ala^8]-NKA(4–10), Asp-Ser-Phe-Val-[β-Ala]-Leu-Met-NH2] (H-DSFV[βAla]LM-NH2) , report its measured Intracellular Ca^2+ % Max.
[reply] 102.2

[ask] Given the entry CSCC[C@H](NC(=O)[C@H](CC(C)C)NC(=O)CCNC(=O)[C@@H](NC(=O)[C@H](Cc1ccccc1)NC(=O)[C@H](CCCCN)NC(=O)[C@@H](N)CC(=O)O)C(C)C)C(N)=O [[Lys^5,β-Ala^8]-NKA(4–10), Asp-Lys-Phe-Val-[β-Ala]-Leu-Met-NH2] (H-DKFV[βAla]LM-NH2) , report its measured Intracellular Ca^2+ % Max.
[reply] 92.0

---

Biological target: human recombinant NK1 receptors (Homo sapiens)
Sequence (P25103 whole entry): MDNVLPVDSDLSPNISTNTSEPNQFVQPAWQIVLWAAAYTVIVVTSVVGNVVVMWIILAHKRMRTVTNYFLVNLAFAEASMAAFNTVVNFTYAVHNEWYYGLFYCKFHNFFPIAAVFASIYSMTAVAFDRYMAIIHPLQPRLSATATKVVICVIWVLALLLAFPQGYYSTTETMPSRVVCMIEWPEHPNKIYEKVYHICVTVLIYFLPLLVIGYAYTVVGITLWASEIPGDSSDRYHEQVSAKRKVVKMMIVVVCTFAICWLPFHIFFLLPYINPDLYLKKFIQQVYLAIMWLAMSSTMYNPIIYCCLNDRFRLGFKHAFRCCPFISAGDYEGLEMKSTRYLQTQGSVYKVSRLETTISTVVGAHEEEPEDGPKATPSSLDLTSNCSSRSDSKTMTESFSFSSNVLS
Assay: cell-based
Non-standard residues stand in square brackets, D forms with d. Residues, ends and D or L forms follow the SMILES beside them. Nle = CCCC[C@H](N)C(=O)O; βAla = NCCC(=O)O
Listed compounds paired with reported Intracellular Ca^2+ % Max
Only the number, expressed in %, is required.

Some solved entries appear below for comparison.
CSCC[C@H](NC(=O)[C@H](CC(C)C)NC(=O)CCNC(=O)[C@@H](NC(=O)[C@H](Cc1ccccc1)NC(=O)[C@H](CO)NC(=O)[C@@H](N)CC(=O)O)C(C)C)C(N)=O [[β-Ala^8]-NKA(4–10), Asp-Ser-Phe-Val-[β-Ala]-Leu-Met-NH2] (H-DSFV[βAla]LM-NH2) ... 106.0
CCCC[C@H](NC(=O)[C@H](CC(C)C)NC(=O)CCNC(=O)[C@@H](NC(=O)[C@H](Cc1ccccc1)NC(=O)[C@H](CCCCN)NC(=O)[C@@H](N)CC(=O)O)C(C)C)C(N)=O [[Lys^5,β-Ala^8,Nle^10]-NKA(4–10), Asp-Lys-Phe-Val-[β-Ala]-Leu-Nle-NH2] (H-DKFV[βAla]L[Nle]-NH2) ... 107.0
CCCC[C@H](NC(=O)[C@H](CC(C)C)NC(=O)CCNC(=O)[C@@H](NC(=O)[C@H](Cc1ccccc1)NC(=O)[C@H](CCCNC(=N)N)NC(=O)[C@@H](N)CC(=O)O)C(C)C)C(N)=O [[Arg^5,β-Ala^8,Nle^10]-NKA(4–10), Asp-Arg-Phe-Val-[β-Ala]-Leu-Nle-NH2] (H-DRFV[βAla]L[Nle]-NH2) ... 104.9
CSCC[C@H](NC(=O)[C@H](CC(C)C)NC(=O)CCNC(=O)[C@@H](NC(=O)[C@H](Cc1ccccc1)NC(=O)[C@H](CCCNC(=N)N)NC(=O)[C@@H](N)CC(=O)O)C(C)C)C(N)=O [[Arg^5,β-Ala^8]-NKA(4–10), Asp-Arg-Phe-Val-[β-Ala]-Leu-Met-NH2] (H-DRFV[βAla]LM-NH2) ... 101.5

[ask] Given the entry "CSCC[C@H](NC(=O)[C@H](CC(C)C)NC(=O)CNC(=O)[C@@H](NC(=O)[C@H](Cc1ccccc1)NC(=O)[C@H](CO)NC(=O)[C@@H](N)CC(=O)O)C(C)C)C(N)=O" , report its measured Intracellular Ca^2+ % Max.
[reply] 117.4
